The origin of these recorded values is PubChem BioAssay AID2330.

experiment: NOMO-1 AML cell viability reduction, primary screen, STK33 inhibitor project, CellTiter-Glo luminescence (AID 2330); settings: NOMO-1 AML viability, 72 h, stronger effect = higher value, concentration not given here
Hit rate of the full screen: of about 37,000 compounds, about 2,800 (7.6%) were called active. About 1% were inconclusive and are not listed. This excerpt belongs to a sample that is enriched for actives.
ASSAY_ENDPOINT: inhibition (%)

[[record]]
smiles_record = "COC1=C[C@@H]2[C@@H]3Cc4ccc(OC)c(O)c4[C@]2(CCN3C)CC1=O"
assay_endpoint = "inhibition"
observed_result = -7.75

[[record]]
smiles_record = "CCCCC/C=C\\C/C=C\\C/C=C\\C/C=C\\CCCCCC(=O)NCCO"
assay_endpoint = "inhibition"
observed_result = 10.8

[[record]]
smiles_record = "COc1ccc2[nH]cc(CCNCc3ccc(Br)cc3)c2c1"
assay_endpoint = "inhibition"
observed_result = 48.6

[[record]]
smiles_record = "CCCCn1c(C)c(C(C)=O)c2c(OCC(=O)O)c(Cl)c(Cl)c(Cl)c21"
assay_endpoint = "inhibition"
observed_result = -7.33

[[record]]
smiles_record = "Cc1ncsc1CCCl"
assay_endpoint = "inhibition"
observed_result = 11.2

[[record]]
smiles_record = "CC(C)Nc1nc(Cl)nc(NC(C)C)n1"
assay_endpoint = "inhibition"
observed_result = 8.29


###

experiment: NOMO-1 AML cell viability reduction, primary screen, STK33 inhibitor project, CellTiter-Glo luminescence (AID 2330); settings: NOMO-1 AML viability, 72 h, stronger effect = higher value, concentration not given here
Among all 37,000 compounds or so, about 2,800 (7.6%) were called active. Not shown: some 1% with an inconclusive outcome. Shown is part of a subset that was picked to be rich in actives.
# inhibition listing for each entry below
ASSAY_ENDPOINT: inhibition (%)

[[record]]
compound = "COc1c(C(C)C)cc2c(c1O)[C@@]1(C(=O)O)CCCC(C)(C)C1CC2 (stereo not given in full)"
assay_endpoint = "inhibition"
observed_result = 16

[[record]]
compound = "COc1ccccc1N1C(=O)NC(=O)C(CCc2ccncc2)(Cc2cccc3ccccc23)C1=O (stereo not given)"
assay_endpoint = "inhibition"
observed_result = 32.3

[[record]]
compound = "Cc1cc(OCc2cc(C(=O)O)oc2C)c2c3c(c(=O)oc2c1)CCCC3"
assay_endpoint = "inhibition"
observed_result = 0.325

[[record]]
compound = "COC1=CC23CCN(C)[C@H](Cc4cc(OC)c(OC)cc42)C3=CC1=O"
assay_endpoint = "inhibition"
observed_result = 24.6

[[record]]
compound = "COc1ccc(CNCc2nc3ccccc3c(=O)n2-c2ccc(F)cc2)cc1"
assay_endpoint = "inhibition"
observed_result = 23.8

[[record]]
compound = "O=C(Nc1ccc2c(C(F)(F)F)cc(=O)oc2c1)c1nc2ncccn2n1"
assay_endpoint = "inhibition"
observed_result = 7.98

[[record]]
compound = "O=C(c1ccccc1)C12CN3CN(CN(C3)C1)C2"
assay_endpoint = "inhibition"
observed_result = -14.9

[[record]]
compound = "C[C@H]1CCC/C=C/C2C[C@H](O)C[C@H]2[C@H](O)/C=C\\C(=O)O1 (stereo not given in full)"
assay_endpoint = "inhibition"
observed_result = 122

[[record]]
compound = "CC(C)c1ccc2c(c1O)CC[C@H]1C3=C(CC[C@]21C)C(=O)OC3"
assay_endpoint = "inhibition"
observed_result = 24.4

[[record]]
compound = "C[C@H]1O[C@@H](O[C@H]2CC[C@]3(CO)C4CC[C@]5(C)[C@@H](C6=CC(=O)OC6)CC[C@]5(O)[C@@H]4CC[C@H]3C2)[C@H](O)[C@H](O)[C@@H]1O[C@@H]1O[C@H](CO)[C@@H](O)[C@H](O)[C@H]1O (stereo not given in full)"
assay_endpoint = "inhibition"
observed_result = 119

